From: patent US20250188176A1

Target: T1, Extracellular domain (ECD) of the canine IL-4 receptor alpha-V5 epitope-AviTag-His Tag (canine)
T1 construct: monomeric form isolated by size exclusion; also called canine IL-4RA-V5-Avi-His; canine IL-4RA
T1 chain: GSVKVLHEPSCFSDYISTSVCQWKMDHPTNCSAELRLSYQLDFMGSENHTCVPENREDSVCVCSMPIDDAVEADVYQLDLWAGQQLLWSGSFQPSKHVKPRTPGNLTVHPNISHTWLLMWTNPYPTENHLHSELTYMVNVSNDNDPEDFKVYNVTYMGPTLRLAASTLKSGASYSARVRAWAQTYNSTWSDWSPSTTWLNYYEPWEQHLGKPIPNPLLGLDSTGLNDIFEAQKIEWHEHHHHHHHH
Experiment: SPR, Fab-SASA captured on BSA;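 note: biacore T200 SPR, Fab-SASA variants from E. coli conditioned medium captured on BSA-coated CM5 chip, canine IL-4RA injected 120 s then 420 s dissociation, 1:1 model fit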
READOUT_TYPE: pKd
Quick note: pKd values are minus log10 of concentrations in mol/L.

pKd for TB640_005 Fab-SASA VH-T28P (Fab, V domains shown, not shown: SASA tag then His-tag) VH: EVQLVESGGDLVKPGGSLRLSCVASGFPFRDYAMTWVRQAPGKGLQWVSLISGSGGKTYYADAVKGRFTISRDNAKNTLYLQMNSLRAEDTAVYYCAVDRLTKTIRPQYYGLWVWGQGTLVTVSS VL: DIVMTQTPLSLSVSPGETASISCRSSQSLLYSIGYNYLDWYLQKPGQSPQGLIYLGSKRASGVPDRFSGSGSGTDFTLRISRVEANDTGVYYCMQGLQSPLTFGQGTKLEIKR is 8.05

pKd for TB640_005 Fab-SASA VL-A60M (Fab, V domains shown, not shown: SASA tag then His-tag) VH: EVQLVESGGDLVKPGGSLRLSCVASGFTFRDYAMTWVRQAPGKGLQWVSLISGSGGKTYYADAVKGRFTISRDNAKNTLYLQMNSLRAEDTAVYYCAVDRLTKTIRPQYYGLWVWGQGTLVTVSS VL: DIVMTQTPLSLSVSPGETASISCRSSQSLLYSIGYNYLDWYLQKPGQSPQGLIYLGSKRMSGVPDRFSGSGSGTDFTLRISRVEANDTGVYYCMQGLQSPLTFGQGTKLEIKR is 8.34

pKd for TB640_005 Fab-SASA VH-L101M (Fab, V domains shown, not shown: SASA tag then His-tag) VH: EVQLVESGGDLVKPGGSLRLSCVASGFTFRDYAMTWVRQAPGKGLQWVSLISGSGGKTYYADAVKGRFTISRDNAKNTLYLQMNSLRAEDTAVYYCAVDRMTKTIRPQYYGLWVWGQGTLVTVSS VL: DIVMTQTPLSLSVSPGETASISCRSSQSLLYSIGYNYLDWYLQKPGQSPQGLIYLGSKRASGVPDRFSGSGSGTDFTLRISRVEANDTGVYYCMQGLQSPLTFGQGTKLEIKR is 8.11
